assay: yeast growth modulation, basal conditions, primary screen, YJM789 clinical isolate, OD600, 24 h (AID 1089);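 further: growth of clinical yeast isolate S. cerevisiae YJM 789 seeded 1000 cells per well; test concentration not given here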; settings: S. cerevisiae YJM789 growth, higher = more signal, called active from +8 up or from −8 down
Respond with Condition met for z-score values of 1 and above, Condition not met for values below.

1. CO[C@H]1O[C@H](CO)[C@@H](OC(=O)Nc2ccccc2)[C@H](OC(=O)Nc2ccccc2)[C@@H]1OC(=O)Nc1ccccc1 | Condition met

Please indicate if the recorded z-score for NC(=O)NCC#Cc1ccc2c(c1)[C@]1(C(=O)N2)[C@H](C(N)=O)[C@H]2C(=O)O[C@H](c3ccccc3)[C@H](c3ccccc3)N2[C@@H]1c1ccc(O)cc1 meets or exceeds 1.
Condition not met

I'd appreciate it if you could say whether CN1C(=O)C2C=CC(C(O)C3CC=CCC3)N(N(c3ccccc3)c3ccccc3)C2C1=O (stereo not given) has z-score at least equal to 1.
Condition not met

Reported z-score at or above 1? O=C1O[C@@H](c2ccccc2)[C@@H](c2ccccc2)N2[C@@H](c3ccccc3OCCO)[C@]3(C(=O)Nc4ccc(C#CC5=CCCCC5)cc43)[C@@H](C(=O)N3CCCCCCC3)[C@H]12
Condition met

Decide: is the reported value of z-score for COc1ccc(CCNC(=O)[C@@H]2c3ccccc3C(=O)N(Cc3ccccc3Cl)[C@H]2c2ccc(CO)cc2)cc1 equal to or greater than 1?
Condition not met

---

experiment: basal 3T3-L1 adipocyte mitochondrial potential changes, profiling panel, cell-based, JC-1 fluorescence, 3T3-L1 adipocytes, 24 h, 100 nL compound (AID 1168); settings: JC-1 mitochondrial fluorescence, higher = more signal, called active from +8 up or from −8 down; further: test concentration not given here
Use z-score to assign classes; range list: low = under -1, intermediate = from -1 up to 0.6, high = 0.6 and over

// bin(item) where item = Cc1ccc([C@@H]2C[C@@H](Sc3ccccc3)[C@H](C(=O)O)CN2S(=O)(=O)c2ccc(C)cc2)cc1
intermediate

Sort into band: C=C(/C(=C/C[C@H](OC(C)=O)c1ccc(CO)o1)c1cc(C(=O)OC)ccc1OC)C(C)C
high

Kindly identify the class of COC(=O)[C@@]1(Cc2ccc(OC)cc2)[C@H]2c3cc(C(=O)N4CCCC4)n(Cc4ccc(O)c(OC)c4)c3C[C@H]2CN1C(=O)c1ccccc1 .
intermediate

Using the reported z-score, which band applies to C=CC1(C(=O)OC)CC=C(C(=O)OC)CC1 (stereo not given) ?
intermediate

Assign a category based on measured z-score for CCCC[C@@H]1C[C@H]1[C@@H](NC(=O)C(C)(C)C)c1ccc(C(F)(F)F)cc1 and give only the class name.
low

---

experiment: cell viability in Huh7 cells, primary screen, cytotoxicity control for HCV replication inhibitor project, CellTiter-Glo luminescence, basal, 48 h (AID 1143); details: Huh7 HCV replicon, higher = more signal, called active from +8 up or from −8 down;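 further: Huh7 hepatoma cells carrying a hepatitis C replication reporter with no stimulus; test concentration not given here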
outcomeMeasure: z-score
Respond with the number and no other words.

// below: answered compounds
1. CN(C)C(=O)[C@@]1(CCS(=O)(=O)c2ccccc2)COC(c2ccc(OCCCO)cc2)=N1 | -3.66
2. CCCC#C[Si](O[C@H](CC)c1cn(Cc2cccc(Cl)c2)nn1)(C(C)C)C(C)C | -1
3. COCCOC(=O)N1C(=O)[C@@]2(c3cc(C#CCCO)ccc31)[C@H](C(N)=O)[C@H]1C(=O)O[C@H](c3ccccc3)[C@H](c3ccccc3)N1[C@@H]2c1ccc(O)cc1 | 0.505
4. C=C(CC1([C@@H](NP(=O)(c2ccccc2)c2ccccc2)[C@H]2C[C@@H]2CCCC)CC1)c1ccccc1 | -3.74
5. O=C1c2ccccc2[C@](Cc2ccccc2I)(C(=O)NCC(F)(F)F)[C@H](c2ccc(CO)cc2)N1Cc1ccccc1Cl | -0.703
6. CC(C)=CCCC(C)=CC(O)C1C=CC2C(=O)N(C)C(=O)C2N1Nc1ccccc1 (stereo not given) | -2.96
7. C=C(/C(=C/C[C@H](OC(C)=O)c1ccccc1OCCO)c1cnc2ccccc2c1)C(C)C | -1.61
8. CNS(=O)(=O)c1ccc(C)cc1 | -1.48

The recorded z-score for entry NC(=O)N1C(=O)C2C(C1=O)C1C=C(c3ccc(CO)cc3)C2C(c2cccs2)N1Cc1cccc(OC(F)(F)F)c1 (stereo not given) equals -3.63

Reported z-score for C=CCOC(=O)[C@H]1[C@@H]2C(=O)O[C@@H](c3ccccc3)[C@@H](c3ccccc3)N2[C@@H](c2ccc(OCCOC(=O)[C@H]3C[C@H]4C(=O)N[C@@H](CCCC[N+](C)(C)C)C(=O)N4[C@H]3c3ccc(O)cc3)cc2)[C@]12C(=O)Nc1ccc(I)cc12 was -0.326
